Recorded Ki by entry
Target: UniProtKB P43116
Sequence (P43116 whole entry): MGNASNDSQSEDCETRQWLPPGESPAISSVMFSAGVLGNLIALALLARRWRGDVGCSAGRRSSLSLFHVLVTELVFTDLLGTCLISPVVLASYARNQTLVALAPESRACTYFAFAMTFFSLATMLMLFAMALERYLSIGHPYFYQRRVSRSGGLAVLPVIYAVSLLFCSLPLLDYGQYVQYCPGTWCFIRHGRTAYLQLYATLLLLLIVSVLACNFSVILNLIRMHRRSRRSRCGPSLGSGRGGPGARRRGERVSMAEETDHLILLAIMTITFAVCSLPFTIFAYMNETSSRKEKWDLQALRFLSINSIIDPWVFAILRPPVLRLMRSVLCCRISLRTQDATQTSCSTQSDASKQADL
Assay: Measurement of EP2 receptor binding action ([3H]prostaglandin E2 displacement)
Method: Measurement of EP2 Receptor Binding Action The membrane fraction was collected on glass fiber filter paper (GF/B, manufactured by Whatman) using a cell harvester (M30R, manufactured by Brandel), and after washing with a buffer solution (10 mM MES-KOH (pH 6.0), 10 mM MgCl2), radioactivity was measured with a liquid scintillation analyzer (2000CA, manufactured by Packard). […] Furthermore, the dissociation constant (Kd value) was calculated by Scatchard analysis.

>  <molecule>
CC#Cc1cccc(-c2ccc(CN(Cc3cccc(NCC(=O)O)n3)S(=O)(=O)c3cccnc3)cc2)c1 [Example 6]

>  <system>
UniProtKB P43116

>  <Ki>
0.75 nM

$$$$
>  <molecule>
CCOc1cccc(-c2ccc(CN(Cc3cccc(NCC(=O)O)n3)S(=O)(=O)c3ccccc3)cc2)c1 [Example 10]

>  <system>
UniProtKB P43116

>  <Ki>
0.97 nM

$$$$
>  <molecule>
CCOc1cccc(-c2ccc(CN(Cc3cccc(NCC(=O)O)n3)S(=O)(=O)c3cccnc3)cc2)c1 [Example 9]

>  <system>
UniProtKB P43116

>  <Ki>
0.8 nM

$$$$
>  <molecule>
CC#Cc1cccc(-c2ccc(CN(Cc3cccc(NCC(=O)O)n3)S(=O)(=O)c3ccccc3)cc2)c1 [Example 16]

>  <system>
UniProtKB P43116

>  <Ki>
0.95 nM

$$$$
>  <molecule>
CCOc1cccc(-c2ccc(CN(Cc3cccc(NCC(=O)O)n3)S(=O)(=O)c3ccccn3)cc2)c1 [Example 7]

>  <system>
UniProtKB P43116

>  <Ki>
0.61 nM

$$$$
